- measurement.target: Mammalian Ca^2+-ATPase (Oryctolagus cuniculus)
- Construct: from tissue; host or cells: rabbit hind leg muscle, sarcoplasmic reticulum membranes (gift, Aarhus University)
- Sequence (P04191 1-994 isoform P04191-2): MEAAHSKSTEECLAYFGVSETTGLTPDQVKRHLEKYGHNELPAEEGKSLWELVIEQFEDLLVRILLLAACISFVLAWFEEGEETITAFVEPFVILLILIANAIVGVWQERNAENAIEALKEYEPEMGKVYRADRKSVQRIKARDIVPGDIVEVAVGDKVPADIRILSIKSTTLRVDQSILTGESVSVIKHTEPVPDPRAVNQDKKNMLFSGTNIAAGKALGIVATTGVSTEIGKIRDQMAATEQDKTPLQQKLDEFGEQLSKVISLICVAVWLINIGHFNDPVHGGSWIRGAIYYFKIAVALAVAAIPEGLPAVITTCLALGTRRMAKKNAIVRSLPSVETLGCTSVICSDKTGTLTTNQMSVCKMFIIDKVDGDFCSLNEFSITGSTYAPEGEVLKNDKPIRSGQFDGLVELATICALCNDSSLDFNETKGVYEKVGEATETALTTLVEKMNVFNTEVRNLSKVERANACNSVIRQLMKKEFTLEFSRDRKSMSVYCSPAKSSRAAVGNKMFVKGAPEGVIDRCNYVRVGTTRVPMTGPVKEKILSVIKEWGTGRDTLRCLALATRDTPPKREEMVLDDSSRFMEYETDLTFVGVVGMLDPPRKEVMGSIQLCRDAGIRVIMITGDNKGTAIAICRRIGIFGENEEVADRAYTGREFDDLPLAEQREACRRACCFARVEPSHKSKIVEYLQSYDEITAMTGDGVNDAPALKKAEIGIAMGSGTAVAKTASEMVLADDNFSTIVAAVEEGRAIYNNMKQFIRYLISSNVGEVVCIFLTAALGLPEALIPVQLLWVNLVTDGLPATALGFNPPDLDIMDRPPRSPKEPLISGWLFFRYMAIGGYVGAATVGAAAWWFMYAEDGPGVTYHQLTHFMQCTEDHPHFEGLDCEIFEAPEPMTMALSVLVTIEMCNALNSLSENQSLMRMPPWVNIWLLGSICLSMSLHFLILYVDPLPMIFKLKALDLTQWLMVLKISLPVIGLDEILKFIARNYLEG
- procedure.summary: Colorimetric ATPase assay, rabbit sarcoplasmic reticulum membranes (SERCA)
- Type: biochemical

{"molecule": "CN1CCN(CCCn2c3ccc(Cl)cc3c3cc(Cl)ccc32)CC1 [Compound 16]", "unit.info": "µM", "comparison.operator": "=", "IC50": 23.2}
{"molecule": "OC(Cn1ccnc1)Cn1c2ccc(Cl)cc2c2cc(Cl)ccc21 (centres unmarked) [Compound 5]", "unit.info": "µM", "comparison.operator": "=", "IC50": 10.7}
{"molecule": "CN(C)CCCCn1c2ccc(Cl)cc2c2cc(Cl)ccc21 [Compound 15]", "unit.info": "µM", "comparison.operator": "=", "IC50": 17.5}
{"molecule": "O=C(O)C1CCN(CC(O)Cn2c3ccc(Cl)cc3c3cc(Cl)ccc32)CC1 (centres unmarked) [Compound 9]", "unit.info": "µM", "comparison.operator": "=", "IC50": 97.6}
{"molecule": "CN1CCN(CC(O)Cn2c3ccc(C#N)cc3c3cc(C#N)ccc32)CC1 (centres unmarked) [Compound 12]", "unit.info": "µM", "comparison.operator": "=", "IC50": 92.7}
{"molecule": "CN1CCN(CC(O)Cn2c3ccc(O)cc3c3cc(O)ccc32)CC1 (centres unmarked) [Compound 13]", "unit.info": "µM", "comparison.operator": ">", "IC50": 167}
{"molecule": "OC(Cn1cncn1)Cn1c2ccc(Cl)cc2c2cc(Cl)ccc21 (centres unmarked) [Compound 6]", "unit.info": "µM", "comparison.operator": "=", "IC50": 20.3}
{"molecule": "Clc1ccc2c(c1)c1cc(Cl)ccc1n2CCCN1CCOCC1 [Compound 18]", "unit.info": "µM", "comparison.operator": "=", "IC50": 70.9}
{"molecule": "COc1ccc2c(c1)c1cc(OC)ccc1n2CC(O)CN1CCN(C)CC1 (centres unmarked) [Compound 11]", "unit.info": "µM", "comparison.operator": ">", "IC50": 167}
{"molecule": "CN(C)CCCn1c2ccc(Cl)cc2c2cc(Cl)ccc21 [Compound 14]", "unit.info": "µM", "comparison.operator": "=", "IC50": 13}
{"molecule": "CN1CCN(CC(O)Cn2c3ccc(Cl)cc3c3cc(Cl)ccc32)CC1 (centres unmarked) [Compound 8]", "unit.info": "µM", "comparison.operator": "=", "IC50": 36.8}

====

Reported values of MFC for individual entries
- System: Candida albicans SC5314
- procedure.summary: Fungal growth inhibition MIC (MFC)
- Type: cell-based
- measurement.setup: Candida albicans SC5314, value in brackets

{"compound": "O=C(O)C1CCN(CC(O)Cn2c3ccc(Cl)cc3c3cc(Cl)ccc32)CC1 (stereo not drawn) [Compound 9]", "unit.info": "µM", "comparison.operator": ">", "MFC": 75}
{"compound": "CN1CCN(CC(O)Cn2c3ccc(Cl)cc3c3cc(Cl)ccc32)CC1 (stereo not drawn) [Compound 8]", "unit.info": "µM", "comparison.operator": "=", "MFC": 75}
{"compound": "CN1CCN(CC(O)Cn2c3ccc(C#N)cc3c3cc(C#N)ccc32)CC1 (stereo not drawn) [Compound 12]", "unit.info": "µM", "comparison.operator": ">", "MFC": 75}
{"compound": "CN(C)CCCn1c2ccc(Cl)cc2c2cc(Cl)ccc21 [Compound 14]", "unit.info": "µM", "comparison.operator": "=", "MFC": 75}
{"compound": "COc1ccc2c(c1)c1cc(OC)ccc1n2CC(O)CN1CCN(C)CC1 (stereo not drawn) [Compound 11]", "unit.info": "µM", "comparison.operator": ">", "MFC": 75}
{"compound": "CN1CCN(CCCn2c3ccc(Cl)cc3c3cc(Cl)ccc32)CC1 [Compound 16]", "unit.info": "µM", "comparison.operator": "=", "MFC": 24}
{"compound": "OC(CN1CCOCC1)Cn1c2ccc(Cl)cc2c2cc(Cl)ccc21 (stereo not drawn) [Compound 7]", "unit.info": "µM", "comparison.operator": "=", "MFC": 75}
{"compound": "Clc1ccc2c(c1)c1cc(Cl)ccc1n2CCCN1CCOCC1 [Compound 18]", "unit.info": "µM", "comparison.operator": ">", "MFC": 75}
{"compound": "CCC(C)NCC(O)Cn1c2ccc(Cl)cc2c2cc(Cl)ccc21 (stereo not drawn) [Compound 10]", "unit.info": "µM", "comparison.operator": "=", "MFC": 3.8}

====

- System: S. cerevisiae
- procedure.summary: Extracellular acidification assay
- Format: cell-based
- measurement.setup: Saccharomyces cerevisiae, mean ± SEM n = 3

{"molecule": "C[C@@H](c1ncncc1F)[C@](O)(Cn1cncn1)c1ccc(F)cc1F [Voriconazole, reference compound]", "measurement.target": "S. cerevisiae", "comparison.operator": ">", "IC50 / µM": 75}
{"molecule": "CCC(C)NCC(O)Cn1c2ccc(Cl)cc2c2cc(Cl)ccc21 (stereo not drawn)", "measurement.target": "S. cerevisiae", "comparison.operator": "=", "IC50 / µM": 2.1}
{"molecule": "OC(CN1CCOCC1)Cn1c2ccc(Cl)cc2c2cc(Cl)ccc21 (stereo not drawn)", "measurement.target": "S. cerevisiae", "comparison.operator": "=", "IC50 / µM": 33.3}
{"molecule": "CN1CCN(CC(O)Cn2c3ccc(Cl)cc3c3cc(Cl)ccc32)CC1 (stereo not drawn)", "measurement.target": "S. cerevisiae", "comparison.operator": "=", "IC50 / µM": 11.1}
{"molecule": "CN1CCN(CCCn2c3ccc(Cl)cc3c3cc(Cl)ccc32)CC1", "measurement.target": "S. cerevisiae", "comparison.operator": "=", "IC50 / µM": 7.3}
{"molecule": "CN(C)CCCCn1c2ccc(Cl)cc2c2cc(Cl)ccc21", "measurement.target": "S. cerevisiae", "comparison.operator": "=", "IC50 / µM": 16.2}

====

Reported values of MFC for individual entries
- System: Saccharomyces cerevisiae ATCC 9763
- procedure.summary: Fungal growth inhibition MIC (MFC)
- Assay type: cell-based
- measurement.setup: ATCC9763; Saccharomyces cerevisiae ATCC 9763, value in brackets

{"molecule": "OC(Cn1ccnc1)Cn1c2ccc(Cl)cc2c2cc(Cl)ccc21 (stereo not shown) [Compound 5]", "measurement.target": "Saccharomyces cerevisiae ATCC 9763", "comparison.operator": "=", "MFC, µM": 75}
{"molecule": "COc1ccc2c(c1)c1cc(OC)ccc1n2CC(O)CN1CCN(C)CC1 (stereo not shown) [Compound 11]", "measurement.target": "Saccharomyces cerevisiae ATCC 9763", "comparison.operator": ">", "MFC, µM": 75}
{"molecule": "O=C(O)C1CCN(CC(O)Cn2c3ccc(Cl)cc3c3cc(Cl)ccc32)CC1 (stereo not shown) [Compound 9]", "measurement.target": "Saccharomyces cerevisiae ATCC 9763", "comparison.operator": ">", "MFC, µM": 75}
{"molecule": "CN1CCN(CCCn2c3ccc(Cl)cc3c3cc(Cl)ccc32)CC1 [Compound 16]", "measurement.target": "Saccharomyces cerevisiae ATCC 9763", "comparison.operator": "=", "MFC, µM": 2.4}

====

Values of MIC reported for Aspergillus flavus ATCC MYA-1005 appear below.
endpoint.label: MIC

{"compound": "COc1ccc2c(c1)c1cc(OC)ccc1n2CC(O)CN1CCN(C)CC1 (stereo not shown)", "endpoint.label": "MIC", "result": "> 75 µM"}
{"compound": "Clc1ccc2c(c1)c1cc(Cl)ccc1n2CCCN1CCOCC1", "endpoint.label": "MIC", "result": "> 75 µM"}
{"compound": "CN1CCN(CC(O)Cn2c3ccc(C#N)cc3c3cc(C#N)ccc32)CC1 (stereo not shown)", "endpoint.label": "MIC", "result": "> 75 µM"}
{"compound": "CN1CCN(CC(O)Cn2c3ccc(Cl)cc3c3cc(Cl)ccc32)CC1 (stereo not shown)", "endpoint.label": "MIC", "result": "> 75 µM"}

====

- measurement.target: S. cerevisiae H^+-ATPase (Saccharomyces cerevisiae, UniProt P05030)
- Construct: transformed with the full-length cDNA of the S. cerevisiae plasma membrane H^+-ATPase isoform PMA1; made in house; host or cells: S. cerevisiae RS72
- Sequence (P05030 whole entry, canonical isoform): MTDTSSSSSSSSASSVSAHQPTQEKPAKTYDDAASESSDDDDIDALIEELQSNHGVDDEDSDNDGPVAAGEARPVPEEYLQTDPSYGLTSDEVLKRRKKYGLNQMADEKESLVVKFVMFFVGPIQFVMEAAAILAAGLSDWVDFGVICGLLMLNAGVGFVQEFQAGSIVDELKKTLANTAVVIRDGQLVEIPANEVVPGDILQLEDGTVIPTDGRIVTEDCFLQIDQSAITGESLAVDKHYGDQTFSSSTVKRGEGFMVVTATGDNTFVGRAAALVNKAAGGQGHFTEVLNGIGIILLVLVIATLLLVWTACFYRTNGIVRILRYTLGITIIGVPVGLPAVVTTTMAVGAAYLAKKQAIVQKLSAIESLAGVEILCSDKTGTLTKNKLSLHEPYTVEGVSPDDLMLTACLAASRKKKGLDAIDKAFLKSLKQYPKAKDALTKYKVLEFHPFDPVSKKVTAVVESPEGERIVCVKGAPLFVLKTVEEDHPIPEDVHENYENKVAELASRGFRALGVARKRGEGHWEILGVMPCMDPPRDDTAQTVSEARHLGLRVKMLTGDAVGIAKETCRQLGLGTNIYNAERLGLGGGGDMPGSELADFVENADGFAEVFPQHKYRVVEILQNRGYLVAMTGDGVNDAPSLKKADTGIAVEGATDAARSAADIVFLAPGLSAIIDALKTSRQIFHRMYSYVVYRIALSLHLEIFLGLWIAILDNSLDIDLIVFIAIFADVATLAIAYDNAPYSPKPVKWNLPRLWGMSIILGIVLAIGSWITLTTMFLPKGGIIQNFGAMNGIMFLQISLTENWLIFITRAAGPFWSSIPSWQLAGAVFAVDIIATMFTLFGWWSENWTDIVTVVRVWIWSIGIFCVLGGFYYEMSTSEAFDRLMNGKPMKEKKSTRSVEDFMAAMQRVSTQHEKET
- procedure.summary: NADH-coupled ATPase assay, initial rate of ATP hydrolysis
- Type: biochemical
- measurement.setup: 10 mM ATP, pH 7, n = 3
endpoint.label: IC50 (µM)

{"compound": "CCC(C)NCC(O)Cn1c2ccc(Cl)cc2c2cc(Cl)ccc21 (stereo not drawn) [Compound 10]", "readout.number": 6.3}
{"compound": "OC(CN1CCOCC1)Cn1c2ccc(Cl)cc2c2cc(Cl)ccc21 (stereo not drawn) [Compound 7]", "readout.number": 16.8}
{"compound": "OC(Cn1ccnc1)Cn1c2ccc(Cl)cc2c2cc(Cl)ccc21 (stereo not drawn) [Compound 5]", "readout.number": 60}

From: paper PMC5609566
